tested_on: T1, soluble human RGMa (human, UniProt Q96B86 48-422, limits assumed)
T1 construct: Soluble antigen in BIAcore; also called huRGMa; repulsive guidance molecule A
T1 sequence (looked up): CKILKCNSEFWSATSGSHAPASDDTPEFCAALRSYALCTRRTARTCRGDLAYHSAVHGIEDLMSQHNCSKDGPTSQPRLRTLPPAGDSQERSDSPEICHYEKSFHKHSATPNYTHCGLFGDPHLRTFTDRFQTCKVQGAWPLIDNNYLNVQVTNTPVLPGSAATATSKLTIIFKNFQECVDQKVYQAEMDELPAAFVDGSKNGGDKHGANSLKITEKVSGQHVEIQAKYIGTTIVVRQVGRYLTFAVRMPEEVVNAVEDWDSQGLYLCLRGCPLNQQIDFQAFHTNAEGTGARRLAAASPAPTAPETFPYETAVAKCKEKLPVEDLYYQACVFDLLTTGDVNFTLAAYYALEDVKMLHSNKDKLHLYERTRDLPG
experimental_protocol: SPR (BIAcore);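 also: Anti-HJV antibodies tested for binding against soluble human RGMa by surface plasmon resonance on a BIAcore instrument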
assay_readout: koff (s⁻¹)

| binder | assay_readout | result |
| --- | --- | --- |
| hHA-004 (antibody, human IgG1, kappa, L234A L235A, V domains shown, hIgG1 L234A, L235A, kappa) VH: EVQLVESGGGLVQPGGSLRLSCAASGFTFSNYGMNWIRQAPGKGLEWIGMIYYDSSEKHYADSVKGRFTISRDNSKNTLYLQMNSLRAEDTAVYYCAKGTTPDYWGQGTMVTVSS VL: DVVLTQSPLSLPVTLGQPASISCRSSQSLESSDGDTFLEWFQQRPGQSPRLLIYDVSTRFSGVPDRFSGSGSGTDFTLKISRVEAEDVGVYYCFQVTHDPVTFGQGTKLEIKR | koff | 2.2e-05 |
| hHA-007 (antibody, human IgG1, kappa, L234A L235A, V domains shown, hIgG1 L234A, L235A, kappa) VH: EVQLVESGGGLVQPGGSLRLSCAASGFTFSNYGMNWIRQAPGKGLEWIGMIYYDSSDKHYADSVKGRFTISRDNSKNTLYLQMNSLRAEDTAVYYCAKGTTPDVWGQGTMVTVSS VL: DVVLTQSPLSLPVTLGQPASISCRSSQSLEESDGYTFLHWFQQRPGQSPRLLIYEVSNRFSGVPDRFSGSGSGTDFTLKISRVEAEDVGVYYCFQATHDPVTFGQGTKLEIKR | koff | 8.9e-05 |
